Origin of measurements: patent US20210277146A1

- assaySystem: T1, PCSK9-His (UniProt Q8NBP7 31-692)
- T1 construct: also called antigen PCSK9-His; Proprotein Convertase Subtilisin/Kexin Type 9; not shown: His tag
- T1 sequence (Q8NBP7 31-692 limits assumed): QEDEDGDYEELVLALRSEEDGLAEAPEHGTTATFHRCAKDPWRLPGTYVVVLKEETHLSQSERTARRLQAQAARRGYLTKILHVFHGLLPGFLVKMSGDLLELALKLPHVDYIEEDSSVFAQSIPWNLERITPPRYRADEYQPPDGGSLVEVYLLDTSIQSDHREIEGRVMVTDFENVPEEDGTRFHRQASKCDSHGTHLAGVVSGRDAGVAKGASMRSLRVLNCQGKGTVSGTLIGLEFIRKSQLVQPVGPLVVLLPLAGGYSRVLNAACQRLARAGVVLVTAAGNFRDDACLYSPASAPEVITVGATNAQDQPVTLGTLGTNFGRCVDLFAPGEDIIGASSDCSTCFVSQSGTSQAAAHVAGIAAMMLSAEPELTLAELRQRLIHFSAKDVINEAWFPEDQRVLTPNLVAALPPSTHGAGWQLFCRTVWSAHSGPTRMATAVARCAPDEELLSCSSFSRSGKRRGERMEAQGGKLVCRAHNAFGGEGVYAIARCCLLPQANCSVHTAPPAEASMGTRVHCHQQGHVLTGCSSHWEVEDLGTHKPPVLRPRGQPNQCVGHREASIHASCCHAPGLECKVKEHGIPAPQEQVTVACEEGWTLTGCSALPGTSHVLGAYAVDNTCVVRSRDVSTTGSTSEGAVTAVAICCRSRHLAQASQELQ
- assayText: competition ELISA, LDLR-Fc coated, PCSK9-His 2 ug/ml, antibody titrated, anti-His-HRP
Under this convention, t denotes IC50 strictly below 0.5 µg/mL and f denotes IC50 at or above 0.5 µg/mL.

Check out these entries, answers already filled in.
DFSK9-13 complete antibody (antibody, V domains shown) VH: QVQLVQSGAEVKKPGASVKVSCKASGYSLTSYGISWVRQAPGQGLEWMGWVSFYQGNTNYAQKLQGRGTMTTDPSTSTAYMELRSLRSDDTAVYYCARGYGMTVWGQGTTVTVSS VL: DIQMTQSPSSLSASVGDRVTITCRASQDVDSWLTWYQQKPGKAPKLLIYGASNLASGVPSRFSGSGSGTDFTLTISSLQPEDFATYYCQQDSKIPLTFGQGTKVEIK = t
DFSK9-12 complete antibody (antibody, V domains shown) VH: QVQLVQSGAEVKKPGASVKVSCKASGYTVTSYGISWVRQAPGQGLEWMGWLSFYNGNTNYAQKLQGRGTMTTDPSTSTAYMELRSLRSDDTAVYYCARGYSLDVWGQGTTVTVSS VL: DIQMTQSPSSLSASVGDRVTITCRASQSVRNWLDWYQQKPGKAPKLLIYGASTLESGVPSRFSGSGSGTDFTLTISSLQPEDFATYYCQQDNDIPLTFGQGTKVEIK = t
DFSK9-18 complete antibody (antibody, V domains shown) VH: QVQLVQSGAEVKKPGASVKVSCKASGYTVTSYGISWVRQAPGQGLEWMGWVSFYNGNSNYAQKLQGRGTMTTDPSTSTAYMELRSLRSDDTAVYYCARGYSLDVWGQGTTVTVSS VL: DIQMTQSPSSLSASVGDRVTITCRASQNINSWLNWYQQKPGKAPKLLIYGASSRQSGVPSRFSGSGSGTDFTLTISSLQPEDFATYYCQQWFDVPTTFGQGTKVEIK = t
DFSK9-1 complete antibody (antibody, V domains shown) VH: QVQLVQSGAEVKRPGASVKVSCKASGGTFTNNAISWVRQAPGQGLEWMGRIIPMFGMANYAQKLQGRGTMTTDPSTSTAYMELRSLRSDDTAVYYCAREGIPMIWGQGTTVTVSS VL: DIQMTQSPSSLSASVGDRVTITCRASQSIDNRLTWYQQKPGKAPKLLIYDASSRQSGVPSRFSGSGSGTDFTLTISSLQPEDFATYYCQQPENDPTTFGQGTKVEIK = f

Now for a further binder.
Ask: Could you please tell me whether IC50 recorded for DFSK9-19 complete antibody (antibody, V domains shown) VH: QVQLVQSGAEVKKPGASVKVSCKASGYSLTSYGISWVRQAPGQGLEWMGWVTFYNGNTNYAQKLQGRGTMTTDPSTSTAYMELRSLRSDDTAVYYCARGFGLSVWGQGTTVTVSS VL: DIQMTQSPSSLSASVGDRVTITCRASQNVNNWLNWYQQKPGKAPKLLIYAASTRETGVPSRFSGSGSGTDFTLTISSLQPEDFATYYCQQDNDMPLTFGQGTKVEIK is less than 0.5 µg/mL?
Result: f
